Where these numbers come from: ChEMBL document CHEMBL1201862

Test system: SK-OV-3
Test description: NCI tumour cell line growth inhibition, 48 h
Activity calls are given as the source filed them. Rule as the data show it: active = GI50 up to about 1.1 µM and inactive = higher.
Each entry below lists one item and its recorded GI50 value.

# Item smiles, GI50
data = [
    ("CCOC(=O)c1cc(-c2ccc(OC)c(OC)c2)cn1C", "> 10 µM (inactive)"),
    ("O=S(=O)(/N=c1\\[nH]c(-c2cc(O)c(O)c(O)c2)cs1)c1ccc(Cl)cc1Cl", "72.6 µM (inactive)"),
    ("COc1cc2c(cc1OC)c1c(OC)c(OC)cc3c1c1c2sc(=S)n1CC3", "> 100 µM (inactive)"),
    ("Cc1nc2ccccc2c(=O)n1NC(=S)Nc1ccc(Cl)cc1[N+](=O)[O-]", "> 100 µM (inactive)"),
    ("N/C(=N\\O)N/N=C/c1ccc2c(c1)OCCO2", "34 µM (inactive)"),
    ("ClC[Si]12OCCN(CCO1)CCO2", "> 100 µM (inactive)"),
]
